Test system: HOP-92 NSCLC
Test: NCI tumour cell line growth inhibition, 48 h
valueType: TGI

Quick one: TGI of `COC(=O)N[C@H]1CCc2c(Br)c(OC)c(OC)c(OC)c2-c2ccc(SC)c(=O)cc21` ?
5.17 µM

Quick one: TGI of `Nn1c(-c2ccccc2)nc2ccc(Br)cc2c1=O` ?
98 µM

Quick one: TGI of Oc1ccc(Cl)cc1C1=N/C(=N\CN2CCN(C/N=C3/N=C(c4cc(Cl)ccc4O)CC(c4ccccc4)N3)CC2)NC(c2ccccc2)C1 (stereo not given) ?
> 100 µM

Quick one: TGI of `CC1=C(C(=O)Nc2ccccc2C)C(c2ccccc2)C(C(=O)Nc2ccccc2C)=C(C)N1` ?
41.2 µM

Quick one: TGI of O=C1CC(O)C=C1Nc1ccc(Cl)cc1 (stereo not given) ?
> 100 µM
